system: E57 (patient-derived glioblastoma stem cells of mesenchymal subtype); assay: surviving fraction (nuclei count normalised to DMSO); higher = more cells surviving (less toxic); conditions: 3000 nM; exposure time: 72 h;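 note: nuclei counted by high-content imaging of Hoechst-stained cells in laminin-coated 384-well plates, relative to 0.1% DMSO vehicle wells, with staurosporine as cell-death control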
Structures can show the parent of a compound that is named as a salt.
Think of 1 as a floor: if surviving fraction stands on it or above, it is True; beneath it, False.

COc1c(N2CCNC(C)C2)c(F)cc2c(=O)c(C(=O)O)cn(C3CC3)c12 (stereo unspecified) [Gatifloxacin]: True

Exercise: Please indicate if the recorded surviving fraction for CC(C)NCC(O)COc1cccc2ccccc12 (stereo unspecified) [Propranolol hydrochloride] meets or exceeds 1.
Key: True

Exercise: Answer whether surviving fraction of CC(C)C[C@H](NC(=O)CNC(=O)c1cc(Cl)ccc1Cl)B1OC(=O)C(CC(=O)O)(CC(=O)O)O1 [MLN9708] is greater than or equal to 1.
Key: False

Exercise: Record CCOC(=O)C1=C(C)NC(C)=C(C(=O)OCC)C1c1c(F)c(F)c(F)c(F)c1F [Nemadipine-A] ; criterion: surviving fraction no lower than 1. Met?
Key: False

----------
test system: E31 (patient-derived glioblastoma stem cells of proneural subtype); experiment: phenotypic distance (Euclidean, principal components) from DMSO controls (arbitrary units); higher = stronger morphological change; settings: 333.3 nM; exposure time: 72 h
Where a name gives a salt, the structure may show the parent alone.
reported.endpoint: phenotypic distance
# respond with the number and nothing more

As a guide, the following entries are already answered.
Cc1ccc(C(=O)N(CCCN)[C@@H](c2oc3cc(Cl)ccc3c(=O)c2Cc2ccccc2)C(C)C)cc1: 4.39
C[C@H](Cc1cc2c(c(C(N)=O)c1)N(CCCO)CC2)NCCOc1ccccc1OCC(F)(F)F: 0.426

Exercise: # get_value(readout= phenotypic distance, system= E31) for CN1C(=O)CC(c2ccccc2)C1=O (stereo not drawn) [Phensuximide]
Key: 0.604

Exercise: Write down the reported phenotypic distance of CC(C)N1CCN(c2ccc(OCC3COC(Cn4cncn4)(c4ccc(Cl)cc4Cl)O3)cc2)CC1 (stereo not drawn) , test system: E31.
Key: 0.868

Exercise: Observed phenotypic distance on E31 for CCC[C@@H]1C[C@@H](C(=O)N[C@@H]([C@H]2O[C@H](SC)[C@H](O)[C@@H](O)[C@H]2O)[C@@H](C)O)N(C)C1 [Lincomycin hydrochloride] , please.
Key: 0.659

Exercise: Recorded phenotypic distance for Nc1ncnc2c1c(-c1ccc(Oc3ccccc3)cc1)cn2C1CCCC1 with E31, please?
Key: 0.777

Exercise: # returns recorded phenotypic distance (system: E31) for Nc1nc(Cl)nc2c1ncn2[C@@H]1O[C@H](CO)[C@@H](O)[C@@H]1F
Key: 3.28

Exercise: # value lookup — system E31, readout phenotypic distance, item COc1cc(OC)c(C(=O)CCCN2CCCC2)c(OC)c1 [Buflomedil hydrochloride]
Key: 0.443

----------
tested on: E34 (patient-derived glioblastoma stem cells of proneural subtype); experiment: phenotypic distance (Euclidean, principal components) from DMSO controls (arbitrary units); higher = stronger morphological change; details: 4.1 nM; exposure time: 72 h
Counter-ions that a name gives are not always drawn.
reported.endpoint: phenotypic distance
Keep it simple and answer with nothing but the number.

Use these answered entries as a reference point.
CCCCCCNC(=O)n1cc(F)c(=O)[nH]c1=O [Carmofur]: 3.48
CO[C@H]1C(=O)[C@]2(C)[C@@H](OC)C[C@H]3OC[C@@]3(OC(C)=O)[C@H]2[C@H](OC(=O)c2ccccc2)[C@]2(O)C[C@H](OC(=O)[C@H](O)[C@@H](NC(=O)OC(C)(C)C)c3ccccc3)C(C)=C1C2(C)C [Cabazitaxel]: 4.76
O=C(/C=C\n1cnc(-c2cc(C(F)(F)F)cc(C(F)(F)F)c2)n1)NNc1cnccn1 [Selinexor]: 1.14
OC(c1cc(C(F)(F)F)nc2c(C(F)(F)F)cccc12)C1CCCCN1 (configuration not stated) [Mefloquine hydrochloride]: 0.892
CCC(C)(C)c1ccc(CC(C)CN2C[C@@H](C)O[C@@H](C)C2)cc1 (some centres not stated) [Amorolfine hydrochloride]: 0.551

Exercise: Quick one: phenotypic distance of CC(=O)CC(c1ccc([N+](=O)[O-])cc1)c1c(O)c2ccccc2oc1=O (configuration not stated) [Acenocoumarol] ?
Key: 1.2

Exercise: I am curious: what phenotypic distance value has been reported for CCC(C)(C)C(=O)O[C@H]1C[C@@H](C)C=C2C=C[C@H](C)[C@H](CC[C@@H]3C[C@@H](O)CC(=O)O3)[C@H]21 [Simvastatin] ?
Key: 1.5

Exercise: Data request, read-out phenotypic distance, for Nc1ncn(C2OC(CO)C(O)C2O)c(=O)n1 (configuration not stated) [Azacytidine-5]
Key: 0.787
